# test: Spectroscopic measurements (absorption, emission, quantum yield, extinction coefficient)
# Assay type: physicochemical
# measurement.conditions: BDNCA library, difference emission minus absorption
Each item that follows carries a reported Flu-Abs.
measured.attribute: Flu-Abs

- Cc1cc(/C=C/c2ccc(Oc3ccc(Cl)cc3)cc2)n2c1C(c1ccc(NC(=O)CCl)cc1)=C1C=CC=[N+]1[B-]2(F)F [BDNCA-277]: 24
- CC1=CC(/C=C/c2ccc(C)c3ccccc23)=[N+]2C1=C(c1ccc(NC(=O)CCl)cc1)c1cccn1[B-]2(F)F [BDNCA-36]: 38
- CC1=CC(/C=C/c2c(C)cccc2Cl)=[N+]2C1=C(c1ccc(NC(=O)CCl)cc1)c1cccn1[B-]2(F)F [BDNCA-285]: 27
- CC1=CC(/C=C/c2ccc(O)cc2)=[N+]2C1=C(c1ccc(NC(=O)CCl)cc1)c1cccn1[B-]2(F)F [BDNCA-153]: 37
- CC1=CC(/C=C/c2cccc(Oc3ccc(Cl)c(Cl)c3)c2)=[N+]2C1=C(c1ccc(NC(=O)CCl)cc1)c1cccn1[B-]2(F)F [BDNCA-299]: 19
- COc1cc(F)c(/C=C/c2cc(C)c3n2[B-](F)(F)[N+]2=CC=CC2=C3c2ccc(NC(=O)CCl)cc2)cc1OC [BDNCA-305]: 38
- CC1=CC(/C=C/c2c[nH]c3ccc(Br)cc23)=[N+]2C1=C(c1ccc(NC(=O)CCl)cc1)c1cccn1[B-]2(F)F [BDNCA-185]: 65
- COc1cc(/C=C/C2=[N+]3C(=C(c4ccc(NC(=O)CCl)cc4)c4cccn4[B-]3(F)F)C(C)=C2)cc(Br)c1OC [BDNCA-259]: 21
- COc1cc(OC)c(/C=C/C2=[N+]3C(=C(c4ccc(NC(=O)CCl)cc4)c4cccn4[B-]3(F)F)C(C)=C2)c(OC)c1 [BDNCA-82]: 50
- COc1ccc2ccccc2c1/C=C/C1=[N+]2C(=C(c3ccc(NC(=O)CCl)cc3)c3cccn3[B-]2(F)F)C(C)=C1 [BDNCA-61]: 46
- CC1=CC(/C=C/c2c(Cl)ccc(C)c2F)=[N+]2C1=C(c1ccc(NC(=O)CCl)cc1)c1cccn1[B-]2(F)F [BDNCA-246]: 19
- COc1ccc(/C=C/C2=[N+]3C(=C(c4ccc(NC(=O)CCl)cc4)c4cccn4[B-]3(F)F)C(C)=C2)cc1Br [BDNCA-260]: 27
- COc1ccc([N+](=O)[O-])cc1/C=C/C1=[N+]2C(=C(c3ccc(NC(=O)CCl)cc3)c3cccn3[B-]2(F)F)C(C)=C1 [BDNCA-250]: 22
- Cc1cc(/C=C/c2ccccc2OCC(=O)O)n2c1C(c1ccc(NC(=O)CCl)cc1)=C1C=CC=[N+]1[B-]2(F)F [BDNCA-128]: 25
